Reference source: patent US12612411B1

- Target Under Test: nanoKAZ luciferase (Oplophorus gracilirostris, UniProt Q9GV45, A31E/A60N/A81I/F95D/I117V/K70R/L54V/L99Q/M102K/N193R/P142E/Q151K/Q38R/Q45L/V71I/Y165I)
- Construct: luciferase catalytic domain (nanoKAZ, 19 kDa) from the Oplophorus-derived luciferase; host or cells: cell-free: 1-Step Human Coupled IVT Kit, pT7CFE1-based vector
- Sequence (Q9GV45 other isoform, or with tags, fused parts or gaps with the stated changes): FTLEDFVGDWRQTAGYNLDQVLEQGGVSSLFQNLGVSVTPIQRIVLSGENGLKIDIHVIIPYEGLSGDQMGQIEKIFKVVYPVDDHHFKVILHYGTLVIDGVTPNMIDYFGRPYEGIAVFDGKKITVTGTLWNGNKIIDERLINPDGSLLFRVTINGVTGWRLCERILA
- Procedure Details: In vitro bioluminescence screening of imidazo[1,2-a]pyrazin-3(7H)-ones with nanoKAZ expressed in vitro (96-well luminometer, 2 h kinetic)
- Type: biochemical
- Condition Parameters: second table; luciferins made in situ from O-protected P; furimazine = 1
Assay Metric: V1: maximum intensity, normalized using furimazine (Q-1) as a reference
Respond using a number only.

Requested field: V1: maximum intensity, normalized using furimazine (Q-1) as a reference. Item: O=c1c(Cc2ccccc2)nc2c(Cc3cccc(F)c3F)[nH]c(-c3ccccc3)cn1-2
2.31

Query CCc1ccc(Cc2nc3c(Cc4c(F)cccc4F)[nH]c(-c4ccccc4)cn-3c2=O)o1 next
1.41

Now give it for Cc1ccc(Cc2nc3c(Cc4cccc(F)c4)[nH]c(-c4ccccc4F)cn-3c2=O)o1 too.
2.04

Then Cc1cc(Cc2nc3c(Cc4cccc(F)c4)[nH]c(-c4ccccc4)cn-3c2=O)oc1C ?
1.5

Again, but for Cc1ccc(Cc2nc3c(Cc4cccc(F)c4F)[nH]c(-c4ccccc4)cn-3c2=O)o1
3.15

Follow-up entry: CCc1cc(Cc2nc3c(Cc4cccc(F)c4F)[nH]c(-c4ccccc4)cn-3c2=O)oc1C
1.26

Query Cc1cc(Cc2nc3c(Cc4cccc(F)c4F)[nH]c(-c4ccccc4)cn-3c2=O)oc1C next
2.43

Would you mind doing Cc1cc(Cc2nc3c(Cc4ccccc4F)[nH]c(-c4ccccc4)cn-3c2=O)oc1C as well?
2.01

Consider next the compound Cc1ccc(Cc2nc3c(Cc4c(F)cccc4F)[nH]c(-c4ccccc4)cn-3c2=O)o1 in the same way.
1.41

Next record, please: CCc1ccc(Cc2nc3c(Cc4cccc(F)c4F)[nH]c(-c4ccccc4)cn-3c2=O)o1
2.81

And for CCCc1ccc(Cc2nc3c(Cc4ccccc4)[nH]c(-c4ccccc4)cn-3c2=O)o1 ?
1.26
